As shown below, each of these molecules has a reported LD50 at 24 h value.
Assay: acute toxicity (LD50), intraperitoneal administration
Details: mouse, in vivo, ip, male mice, 24 hours after administration
Write the answer as a number in mg/kg, unit excluded.

CC(C)C[C@H]1C(=O)N2CCC[C@H]2[C@]2(O)O[C@@](C)(NC(=O)[C@@H]3C=C4c5cccc6[nH]cc(c56)C[C@H]4N(C)C3)C(=O)N12 [ergosine methanesulfonate, reference compound]
206

Please look at the following molecule next.
Enquiry: Request the reported LD50 at 24 h associated with CC(C)[C@@]1(NC(=O)[C@@H]2C=C3c4cccc5[nH]cc(c45)C[C@H]3N(C)C2)O[C@@]2(O)[C@@H]3CCCN3C(=O)[C@H](Cc3ccccc3)N2C1=O [ergocristine methanesulfonate, reference compound]
Return: 234

###

Recorded measurements of The increase of pupil widening in comparison with the control, one per entry
Test system: alpha-adrenergic receivers of the dilatating pupil muscle
Assay: effect on the function of the pupil (mydriatic effect, Polewka's method)
Assay type: in vivo
Settings: after 15 min., 5 mg/kg intravenously, mouse
Where a name gives a salt, the structure may show the parent alone.
Report as a plain number; the unit % is understood.

CN1C[C@H](C(=O)N[C@]2(C)O[C@@]3(O)[C@@H]4CCCN4C(=O)[C@H](Cc4ccccc4)N3C2=O)C=C2c3cccc4[nH]cc(c34)C[C@H]21 [ergotamine tartrate, reference compound]
73.3
CC(C)[C@@]1(NC(=O)[C@H]2C=C3c4cccc5[nH]cc(c45)C[C@H]3N(C)C2)O[C@@]2(O)[C@@H]3CCCN3C(=O)[C@H](Cc3ccccc3)N2C1=O [ergocristinine methanesulfonate, Ergocristinine methanesulfonate]
48.7

Attention now shifts to the item below.
Enquiry: Query the reported The increase of pupil widening in comparison with the control for alpha-adrenergic receivers of the dilatating pupil muscle; item: CC(C)C[C@H]1C(=O)N2CCC[C@H]2[C@]2(O)O[C@@](C)(NC(=O)[C@H]3C=C4c5cccc6[nH]cc(c56)C[C@H]4N(C)C3)C(=O)N12 [ergosinine methanesulfonate, Ergosinine methanesulfonate]
Return: 135.0

###

Tested on: spontaneously hypertensive rats
Experiment: effect on arterial pressure of spontaneously hypertensive rats
Type: in vivo, rats (variety Okamoto Aoki F32)
Settings: control; spontaneously hypertensive rats
Structures can show the parent of a compound that is named as a salt.
Systolic blood pressure listing for selected compounds.
Report only the number, with the unit mm Hg understood.

CC(C)[C@@]1(NC(=O)[C@H]2C=C3c4cccc5[nH]cc(c45)C[C@H]3N(C)C2)O[C@@]2(O)[C@@H]3CCCN3C(=O)[C@H](Cc3ccccc3)N2C1=O [ergocristinine methanesulfonate, Ergocristinine methanesulfonate]
187

Attention now shifts to the item below.
Enquiry: // returns reported Systolic blood pressure for input CN1C[C@H](C(=O)N[C@]2(C)O[C@@]3(O)[C@@H]4CCCN4C(=O)[C@H](Cc4ccccc4)N3C2=O)C=C2c3cccc4[nH]cc(c34)C[C@H]21 [ergotamine tartrate, reference compound]
Return: 179

###

System: spontaneously hypertensive rats
Experiment: effect on arterial pressure of spontaneously hypertensive rats
Assay type: in vivo, rats (variety Okamoto Aoki F32)
Settings: control; spontaneously hypertensive rats
Quantity kind: Systolic blood pressure (mm Hg)
Use mm Hg as the unit, but write only the number.

For orientation, consider the following solved cases.
CC(C)[C@H]1C(=O)N2CCC[C@H]2[C@]2(O)O[C@](NC(=O)[C@H]3C=C4c5cccc6[nH]cc(c56)C[C@H]4N(C)C3)(C(C)C)C(=O)N12 [ergocorninine methanesulfonate, Ergocorninine methanesulfonate]
190
CC(C)C[C@H]1C(=O)N2CCC[C@H]2[C@]2(O)O[C@](NC(=O)[C@H]3C=C4c5cccc6[nH]cc(c56)C[C@H]4N(C)C3)(C(C)C)C(=O)N12 [ergocryptinine methanesulfonate, Ergocryptinine methanesulfonate]
189

Enquiry: What value of measured Systolic blood pressure is listed for CC(C)C[C@H]1C(=O)N2CCC[C@H]2[C@]2(O)O[C@@](C)(NC(=O)[C@@H]3C=C4c5cccc6[nH]cc(c56)C[C@H]4N(C)C3)C(=O)N12 [ergosine methanesulfonate, reference compound] ?
Return: 188

###

Test system: arrhythmias induced by adrenalin
Experiment: effect on arrhythmia induced by adrenalin
Assay type: in vivo
Conditions: 2.0 mg/kg intraperitoneally, guinea pigs, adrenalin 0.02 mg/kg intravenously
This listing pairs compounds with measured Shortening of arrhythmia duration.

Enquiry: Which value of Shortening of arrhythmia duration has been reported for CN1C[C@@H](C(=O)N[C@]2(C)O[C@@]3(O)[C@@H]4CCCN4C(=O)[C@H](Cc4ccccc4)N3C2=O)C=C2c3cccc4[nH]cc(c34)C[C@H]21 [ergotaminine methanesulfonate, Ergotaminine methanesulfonate] in the records?
Return: 28 % of control

Enquiry: Which measured Shortening of arrhythmia duration value corresponds to CC(C)[C@@]1(NC(=O)[C@H]2C=C3c4cccc5[nH]cc(c45)C[C@H]3N(C)C2)O[C@@]2(O)[C@@H]3CCCN3C(=O)[C@H](Cc3ccccc3)N2C1=O [ergocristinine methanesulfonate, Ergocristinine methanesulfonate] ?
Return: 32 % of control

Enquiry: Please give the measured Shortening of arrhythmia duration for this compound: CC(C)C[C@H]1C(=O)N2CCC[C@H]2[C@]2(O)O[C@@](C)(NC(=O)[C@H]3C=C4c5cccc6[nH]cc(c56)C[C@H]4N(C)C3)C(=O)N12 [ergosinine methanesulfonate, Ergosinine methanesulfonate]
Return: 79 % of control

###

Test system: spontaneously hypertensive rats
Experiment: effect on arterial pressure of spontaneously hypertensive rats
Type: in vivo, rats (variety Okamoto Aoki F32)
Conditions: day 8; 50 mcg/kg intraperitoneally
Where a name gives a salt, the structure may show the parent alone.
Quantity kind: Systolic blood pressure (mm Hg)
Just the number in mm Hg, nothing appended.

Below, each entry is followed by its recorded Systolic blood pressure result.
CC(C)C[C@H]1C(=O)N2CCC[C@H]2[C@]2(O)O[C@](NC(=O)[C@H]3C=C4c5cccc6[nH]cc(c56)C[C@H]4N(C)C3)(C(C)C)C(=O)N12 [ergocryptinine methanesulfonate, Ergocryptinine methanesulfonate]
161
CN1C[C@@H](C(=O)N[C@]2(C)O[C@@]3(O)[C@@H]4CCCN4C(=O)[C@H](Cc4ccccc4)N3C2=O)C=C2c3cccc4[nH]cc(c34)C[C@H]21 [ergotaminine methanesulfonate, Ergotaminine methanesulfonate]
144
CC(C)[C@H]1C(=O)N2CCC[C@H]2[C@]2(O)O[C@](NC(=O)[C@H]3C=C4c5cccc6[nH]cc(c56)C[C@H]4N(C)C3)(C(C)C)C(=O)N12 [ergocorninine methanesulfonate, Ergocorninine methanesulfonate]
160

Enquiry: What value of measured Systolic blood pressure is listed for CN1C[C@H](C(=O)N[C@]2(C)O[C@@]3(O)[C@@H]4CCCN4C(=O)[C@H](Cc4ccccc4)N3C2=O)C=C2c3cccc4[nH]cc(c34)C[C@H]21 [ergotamine tartrate, reference compound] ?
Return: 173

###

System: alpha-adrenergic receivers of the dilatating pupil muscle
Assay: effect on the function of the pupil (mydriatic effect, Polewka's method)
Type: in vivo
Conditions: after 30 min., 5 mg/kg intravenously, mouse
Structures can show the parent of a compound that is named as a salt.
# key: entry, value: The increase of pupil widening in comparison with the control
// return numeric value only (unit: %, not printed)

CC(C)C[C@H]1C(=O)N2CCC[C@H]2[C@]2(O)O[C@@](C)(NC(=O)[C@H]3C=C4c5cccc6[nH]cc(c56)C[C@H]4N(C)C3)C(=O)N12 [ergosinine methanesulfonate, Ergosinine methanesulfonate]
122.5
CN1C[C@H](C(=O)N[C@]2(C)O[C@@]3(O)[C@@H]4CCCN4C(=O)[C@H](Cc4ccccc4)N3C2=O)C=C2c3cccc4[nH]cc(c34)C[C@H]21 [ergotamine tartrate, reference compound]
22.8

Enquiry: Given CC(C)C[C@H]1C(=O)N2CCC[C@H]2[C@]2(O)O[C@](NC(=O)[C@H]3C=C4c5cccc6[nH]cc(c56)C[C@H]4N(C)C3)(C(C)C)C(=O)N12 [ergocryptinine methanesulfonate, Ergocryptinine methanesulfonate] , state its recorded The increase of pupil widening in comparison with the control.
Return: 91.6

Enquiry: Request the reported The increase of pupil widening in comparison with the control associated with CC(C)[C@@]1(NC(=O)[C@H]2C=C3c4cccc5[nH]cc(c45)C[C@H]3N(C)C2)O[C@@]2(O)[C@@H]3CCCN3C(=O)[C@H](Cc3ccccc3)N2C1=O [ergocristinine methanesulfonate, Ergocristinine methanesulfonate]
Return: 10.3

Enquiry: The increase of pupil widening in comparison with the control lookup needed for CC(C)[C@H]1C(=O)N2CCC[C@H]2[C@]2(O)O[C@](NC(=O)[C@H]3C=C4c5cccc6[nH]cc(c56)C[C@H]4N(C)C3)(C(C)C)C(=O)N12 [ergocorninine methanesulfonate, Ergocorninine methanesulfonate] , thanks.
Return: 36.1

Enquiry: Looking for the measured The increase of pupil widening in comparison with the control of CN1C[C@@H](C(=O)N[C@]2(C)O[C@@]3(O)[C@@H]4CCCN4C(=O)[C@H](Cc4ccccc4)N3C2=O)C=C2c3cccc4[nH]cc(c34)C[C@H]21 [ergotaminine methanesulfonate, Ergotaminine methanesulfonate] , can you help?
Return: 69.8

Enquiry: What value of The increase of pupil widening in comparison with the control has been reported for the following compound? CC(C)C[C@H]1C(=O)N2CCC[C@H]2[C@]2(O)O[C@@](C)(NC(=O)[C@@H]3C=C4c5cccc6[nH]cc(c56)C[C@H]4N(C)C3)C(=O)N12 [ergosine methanesulfonate, reference compound]
Return: 110.5
